Measured Ki, listed per entry for reference.
Target: UniProt P04150
Sequence (P04150 1-777): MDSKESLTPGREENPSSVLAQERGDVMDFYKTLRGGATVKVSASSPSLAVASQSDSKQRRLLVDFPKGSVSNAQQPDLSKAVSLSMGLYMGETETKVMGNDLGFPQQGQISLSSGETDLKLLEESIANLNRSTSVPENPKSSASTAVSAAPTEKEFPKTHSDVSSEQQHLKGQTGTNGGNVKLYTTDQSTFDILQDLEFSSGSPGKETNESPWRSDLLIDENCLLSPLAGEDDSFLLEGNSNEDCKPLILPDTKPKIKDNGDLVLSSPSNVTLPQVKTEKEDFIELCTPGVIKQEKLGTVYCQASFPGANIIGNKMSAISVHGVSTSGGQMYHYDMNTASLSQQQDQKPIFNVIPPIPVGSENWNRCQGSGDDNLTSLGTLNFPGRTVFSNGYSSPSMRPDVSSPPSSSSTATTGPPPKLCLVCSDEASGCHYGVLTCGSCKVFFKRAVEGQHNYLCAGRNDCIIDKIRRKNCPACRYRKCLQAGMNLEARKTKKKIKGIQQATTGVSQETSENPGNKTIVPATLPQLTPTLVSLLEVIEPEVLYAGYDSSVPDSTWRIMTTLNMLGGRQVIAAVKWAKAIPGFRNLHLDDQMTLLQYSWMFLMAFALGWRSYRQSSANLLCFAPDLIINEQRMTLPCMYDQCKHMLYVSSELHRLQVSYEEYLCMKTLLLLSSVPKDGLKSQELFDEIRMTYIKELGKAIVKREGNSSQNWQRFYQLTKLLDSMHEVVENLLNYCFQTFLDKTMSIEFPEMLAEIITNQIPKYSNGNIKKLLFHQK
Test: Glucocorticoid Receptor Binding Assay (II), fluorescence polarization, FITC-dexamethasone
Parameters: recombinantly expressed human full-length glucocorticoid receptor; purchased PanVera Co., Madison P2816
Conditions: GR Binding Assay (II); read-out: GR (Ki, nM) (GR Binding Assay (II))
metric: Ki (nM)

compound	unitLabel	assayValue
CC(C)(C(=O)Nc1nccs1)C1c2ccccc2-c2ccc(O)cc21 (centres unmarked)	nM	1640
CC(C)(C(=O)Nc1nccs1)C1c2ccccc2Oc2c(O)cccc21 (centres unmarked)	nM	243
CCOC(=O)c1csc(NC(=O)C(C)(C)C2c3ccccc3Oc3cc(OCOCCOC)ccc32)n1 (centres unmarked)	nM	296
CC(C)(C(=O)Nc1nccs1)[C@H]1c2ccccc2Oc2nc(N3CCCCC3)ccc21	nM	11.1
CCOC(=O)c1csc(NC(=O)C(C)(C)C2c3ccccc3Oc3ncccc32)n1 (centres unmarked)	nM	820

====

Tested on: AP-1 induced transcriptional activity
Experiment: Cellular Transrepressional Assay (AP-1 luciferase reporter, PMA-activated A549 cells)
Assay type: cell-based
Settings: maximum inhibition, Cellular Transrepression Assay
Description: Cellular Transrepressional Assay To measure the ability of test molecules to inhibit AP-1 induced transcriptional activity we utilized an A549 cell which was stably transfected with a plasmid containing 7× AP-1 DNA binding sites (pAP-1-Luc plasmid, Stratagene Co. La Jolla, Calif.) followed by the gene for luciferase. […] After a 10 minute incubation of luciferase reagent with cells, luminescence was measured in a TopCount luminescence counter. […]
Use yes (1) when the recorded AP-1 Max % inh (Cellular Transrepression Assay) is no lower than 50%; use no (0) when it is lower.

molecule	testTarget	category
CC(C)(C(=O)Nc1nncs1)C1c2ccccc2Oc2cc(OC(=O)NC3CCCCC3)ccc21 (stereo not shown)	AP-1 induced transcriptional activity	no (0)
CC(C)(C(=O)Nc1nncs1)C1c2ccccc2Oc2cc(OC(=O)NCCc3ccc(F)cc3)ccc21 (stereo not shown)	AP-1 induced transcriptional activity	yes (1)
CCOc1ccc(-c2ccc3c(n2)Oc2ccccc2C3C(C)(C)C(=O)Nc2nncs2)cc1 (stereo not shown)	AP-1 induced transcriptional activity	no (0)
CCc1ccc(-c2ccc3c(n2)Oc2ccccc2C3C(C)(C)C(=O)Nc2nncs2)cc1 (stereo not shown)	AP-1 induced transcriptional activity	yes (1)
CN(CCC#N)C(=O)c1ccc(-c2ccc3c(n2)Oc2ccccc2[C@@H]3C(C)(C)C(=O)Nc2nncs2)cc1	AP-1 induced transcriptional activity	no (0)

====

Molecular target: human full-length glucocorticoid receptor (Homo sapiens)
Assay: Glucocorticoid Receptor Binding Assay (I), fluorescence polarization, Fluormone GS Red
Design: purified human recombinant full-length glucocorticoid receptor; purchased Invitrogen Part #2893
Details: GR Binding Assay (I); read-out: GR (Ki, nM) (GR Binding Assay (I))
Experimental: Glucocorticoid Receptor Binding Assay (I)^a Briefly, purified human recombinant full-length glucocorticoid receptor (2 nM) was mixed with fluorescently labeled glucocorticoid (1 nM Fluormone GS Red) in the presence or absence of test compound. After two hour incubation at room temperature in the dark, the fluorescence polarization (FP) of the samples was measured. […] Test compounds were analyzed in the concentration range from 8.5E-05 μM to 5 μM.
Each record is given Yes if its reported Ki is strictly below 20 nM. Records at or above 20 nM are given No.

compound	testTarget	category
COC[C@H]1CCCN1C(=O)c1ccc(-c2ccc3c(n2)Oc2ccccc2[C@@H]3C(C)(C)C(=O)Nc2nncs2)cc1	human full-length glucocorticoid receptor (Homo sapiens)	Yes
CN(CCC#N)C(=O)c1ccc(-c2ccc3c(n2)Oc2ccccc2[C@@H]3C(C)(C)C(=O)Nc2nncs2)cc1F	human full-length glucocorticoid receptor (Homo sapiens)	Yes
CN(C)C(=O)n1cc(-c2ccc3c(n2)Oc2ccccc2[C@@H]3C(C)(C)C(=O)Nc2nncs2)cn1	human full-length glucocorticoid receptor (Homo sapiens)	Yes
CN(C)[C@H]1CCN(C(=O)c2ccc(-c3ccc4c(n3)Oc3ccccc3[C@@H]4C(C)(C)C(=O)Nc3nncs3)cc2)C1	human full-length glucocorticoid receptor (Homo sapiens)	No
CC(C)(C(=O)Nc1nncs1)[C@H]1c2ccccc2Oc2nc(-c3ccc(C(=O)N4CCC(CO)CC4)cc3)ccc21	human full-length glucocorticoid receptor (Homo sapiens)	No
CC(C)(C(=O)Nc1nncs1)[C@H]1c2ccccc2Oc2nc(-c3ccc(C(=O)N4CCCC(=O)CC4)cc3)ccc21	human full-length glucocorticoid receptor (Homo sapiens)	Yes
CC(C)(C(=O)Nc1nncs1)C1c2ccccc2Oc2cc(C(=O)O)ccc21 (stereo not shown)	human full-length glucocorticoid receptor (Homo sapiens)	No

====

Target: human full-length glucocorticoid receptor (Homo sapiens, UniProt P04150)
Sequence (P04150 1-777): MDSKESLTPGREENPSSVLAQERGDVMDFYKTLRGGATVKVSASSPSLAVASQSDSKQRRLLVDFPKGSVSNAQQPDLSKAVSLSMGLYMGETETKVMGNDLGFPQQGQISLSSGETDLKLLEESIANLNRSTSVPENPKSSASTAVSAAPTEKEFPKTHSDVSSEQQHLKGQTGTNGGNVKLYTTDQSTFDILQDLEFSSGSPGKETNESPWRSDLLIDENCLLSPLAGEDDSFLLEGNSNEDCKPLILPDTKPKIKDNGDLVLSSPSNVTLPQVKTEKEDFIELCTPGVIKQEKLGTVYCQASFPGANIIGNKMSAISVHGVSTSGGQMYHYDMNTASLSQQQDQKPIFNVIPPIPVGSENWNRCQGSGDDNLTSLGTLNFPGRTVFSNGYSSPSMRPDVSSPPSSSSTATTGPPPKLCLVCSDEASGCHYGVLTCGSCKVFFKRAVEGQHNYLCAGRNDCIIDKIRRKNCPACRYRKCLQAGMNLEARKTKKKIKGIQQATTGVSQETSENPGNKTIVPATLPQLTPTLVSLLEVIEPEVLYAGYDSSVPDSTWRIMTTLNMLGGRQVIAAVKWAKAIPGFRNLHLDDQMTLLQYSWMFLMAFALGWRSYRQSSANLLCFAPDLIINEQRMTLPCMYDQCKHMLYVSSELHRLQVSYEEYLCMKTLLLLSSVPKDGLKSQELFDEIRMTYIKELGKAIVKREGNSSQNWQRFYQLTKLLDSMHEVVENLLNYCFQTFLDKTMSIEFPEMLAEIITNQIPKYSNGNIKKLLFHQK
Assay: Glucocorticoid Receptor Binding Assay (I), fluorescence polarization, Fluormone GS Red
Set-up: purified human recombinant full-length glucocorticoid receptor; purchased Invitrogen Part #2893
Conditions: GR Binding Assay (I); read-out: GR (Ki, nM) (GR Binding Assay (I))
Measured Ki, listed per entry for reference.
metric: Ki (nM)

molecule	testTarget	assayValue
CC(C)(C(=O)Nc1nncs1)[C@H]1c2ccccc2Oc2nc(-c3ccc(C(=O)N4CCC[C@@H](O)C4)cc3)ccc21 [Example 284]	human full-length glucocorticoid receptor (Homo sapiens, UniProt P04150)	17.4
CC(C)(C(=O)Nc1nncs1)C1c2ccccc2Oc2cc(NC(=O)NCc3ccccc3)ccc21 (stereo not shown) [Example 122]	human full-length glucocorticoid receptor (Homo sapiens, UniProt P04150)	80
CC(C)(C(=O)Nc1nncs1)[C@H]1c2ccccc2Oc2nc(-c3ccc(OC4CCOCC4)c(F)c3)ccc21 [Example 242]	human full-length glucocorticoid receptor (Homo sapiens, UniProt P04150)	412
CN(C)C(=O)c1ccc(-c2ccc3c(n2)Oc2ccccc2C3C(C)(C)C(=O)Nc2ncc[nH]2)cc1 (stereo not shown) [Example 440]	human full-length glucocorticoid receptor (Homo sapiens, UniProt P04150)	21
COCCN(C)C(=O)c1ccc(-c2ccc3c(n2)Oc2ccccc2[C@@H]3C(C)(C)C(=O)Nc2nncs2)cc1 [Example 295]	human full-length glucocorticoid receptor (Homo sapiens, UniProt P04150)	38.7
COCCNC(=O)c1ccc(-c2ccc3c(n2)Oc2ccccc2[C@@H]3C(C)(C)C(=O)Nc2nncs2)cc1 [Example 355]	human full-length glucocorticoid receptor (Homo sapiens, UniProt P04150)	19.6
CC(C)(C(=O)Nc1nncs1)[C@H]1c2ccccc2Oc2nc(-c3ccc(Cl)cc3)ccc21 [Example 178]	human full-length glucocorticoid receptor (Homo sapiens, UniProt P04150)	10.6
